Target: T1, TNFR1 (Homo sapiens, UniProt P19438)
T1 chain: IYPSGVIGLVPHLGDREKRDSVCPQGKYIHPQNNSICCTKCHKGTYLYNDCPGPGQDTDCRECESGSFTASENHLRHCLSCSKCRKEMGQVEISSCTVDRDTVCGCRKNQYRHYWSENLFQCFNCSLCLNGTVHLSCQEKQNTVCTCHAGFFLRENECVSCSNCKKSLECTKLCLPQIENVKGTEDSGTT
Assay: yeast display SC50
measured_endpoint: apparent Kd (screen) (nM)

Completed entries (count: 6):
R92P (designed binder) MTLQELLREEALRRAEAEAFRYALELLAEKFPEQKEYLLDLAEEIESQIRSLSGVDVEDVRKFLDKEWAWVKELLAEHPAELAEVEAARAAPLAELRAEVEAKVAA
2.25
G54Y (designed binder) MTLQELLREEALRRAEAEAFRYALELLAEKFPEQKEYLLDLAEEIESQIRSLSYVDVEDVRKFLDKEWAWVKELLAEHPAELAEVEAARAARLAELRAEVEAKVAA
2.73
A83P (designed binder) MTLQELLREEALRRAEAEAFRYALELLAEKFPEQKEYLLDLAEEIESQIRSLSGVDVEDVRKFLDKEWAWVKELLAEHPAELPEVEAARAARLAELRAEVEAKVAA
1.27
A76N (designed binder) MTLQELLREEALRRAEAEAFRYALELLAEKFPEQKEYLLDLAEEIESQIRSLSGVDVEDVRKFLDKEWAWVKELLNEHPAELAEVEAARAARLAELRAEVEAKVAA
0.49
S53G (designed binder) MTLQELLREEALRRAEAEAFRYALELLAEKFPEQKEYLLDLAEEIESQIRSLGGVDVEDVRKFLDKEWAWVKELLAEHPAELAEVEAARAARLAELRAEVEAKVAA
2.48
E18D (designed binder) MTLQELLREEALRRAEADAFRYALELLAEKFPEQKEYLLDLAEEIESQIRSLSGVDVEDVRKFLDKEWAWVKELLAEHPAELAEVEAARAARLAELRAEVEAKVAA
0.718

A. K66E (designed binder) MTLQELLREEALRRAEAEAFRYALELLAEKFPEQKEYLLDLAEEIESQIRSLSGVDVEDVRKFLDEEWAWVKELLAEHPAELAEVEAARAARLAELRAEVEAKVAA
B. A90K (designed binder) MTLQELLREEALRRAEAEAFRYALELLAEKFPEQKEYLLDLAEEIESQIRSLSGVDVEDVRKFLDKEWAWVKELLAEHPAELAEVEAARKARLAELRAEVEAKVAA
[ask] Problem: Given the entries A and B , determine which has the lower reported apparent Kd (screen). Answer = label.
[reply] B

These data points were gathered from paper PMC12416549.
